- System Name: purified human recombinant MTH1 (human MTH1, residues 42-197) (Homo sapiens)
- Construct: human MTH1, residues 42-197, Uniprot-ID: P36639, expressed in E. coli; made in house; host or cells: E. coli
- Experimental Details: MTH1 enzymatic assay (luminescence-based, PPiLight)
- Assay type: biochemical
- Conditions Used: 6 μM 8-oxo-dGTP, Table 1, grouped
pIC50: −log10 of the molar value.
Attribute Measured: pIC50

Illustrative cases are given below, each with its answer.
{"Compound": "Nc1nc(NC2CC2)cc(N2CC[C@H](O)C2)n1", "Attribute Measured": "pIC50", "Val": "7.00 to 9.00"}
{"Compound": "Nc1nc(NC2CC2)cc(N2CC[C@@](O)(C(F)(F)F)C2)n1", "Attribute Measured": "pIC50", "Val": "> 9.00"}
{"Compound": "Nc1nc2c(c(N3CCC(F)(F)C3)n1)CCCN2", "Attribute Measured": "pIC50", "Val": "> 9.00"}
{"Compound": "CNc1cc(N2CCCC[C@H]2Cc2ccc(OC)cc2)nc(N)n1", "Attribute Measured": "pIC50", "Val": "> 9.00"}
{"Compound": "CNc1cc(N2CCC[C@](O)(c3ccccc3)C2)nc(N)n1 (single isomer, unassigned)", "Attribute Measured": "pIC50", "Val": "7.00 to 9.00"}
{"Compound": "CNc1cc(N2C(=O)CCC2Cc2ccccc2)nc(N)n1 (centres unmarked)", "Attribute Measured": "pIC50", "Val": "7.00 to 9.00"}
{"Compound": "CNc1cc(N2CCCC2Cc2cccc(Cl)c2)nc(N)n1 (centres unmarked)", "Attribute Measured": "pIC50", "Val": "> 9.00"}
{"Compound": "FC1(F)CCN(c2ncnc3c2CCCN3)C1", "Attribute Measured": "pIC50", "Val": "< 7.00"}

Query string: Given the entry CNc1cc(N2CCC(CO)C2)nc(N)n1 (centres unmarked) , report its measured pIC50.
Result string: > 9.00

Query string: One more compound: `CNc1cc(N2CCC[C@H]2Cc2ccccc2OC)nc(N)n1`
Result string: > 9.00

Query string: One more compound: `Nc1nc(NC2CC2)cc(N2CC[C@@H](CO)C2)n1`
Result string: > 9.00

---

- System Name: purified human recombinant MTH1 (human MTH1, residues 42-197) (Homo sapiens, UniProt P36639)
- Construct: human MTH1, residues 42-197, Uniprot-ID: P36639, expressed in E. coli; made in house; host or cells: E. coli
- Experimental Details: MTH1 enzymatic assay (luminescence-based, PPiLight)
- Type: biochemical
- Conditions Used: 6 μM 8-oxo-dGTP, Table 1, grouped
Attribute Measured: IC50

Illustrative cases are given below, each with its answer.
{"Compound": "CNc1cc(N2CC(Cc3ccccc3)CC2=O)nc(N)n1 (centres unmarked)", "Val": "1 to 100 nM"}
{"Compound": "CNc1cc(N2CCCC2Cc2ccccc2Cl)nc(N)n1 (centres unmarked)", "Val": "< 1 nM"}
{"Compound": "Nc1nc(NCC2CCCC2)cc(N2CCC(F)(F)C2)n1", "Val": "1 to 100 nM"}
{"Compound": "C[C@@H]1C[C@H](O)CN1c1cc(NC2CC2)nc(N)n1", "Val": "1 to 100 nM"}

Note: attention shifts to another entry.
Query string: Given the entry `Nc1nc(NC2CC2)cc(N2CCc3ccccc32)n1` , report its measured IC50.
Result string: 1 to 100 nM

---

- System Name: purified human recombinant MTH1 (human MTH1, residues 42-197) (Homo sapiens, UniProt P36639)
- Construct: human MTH1, residues 42-197, Uniprot-ID: P36639, expressed in E. coli; made in house; host or cells: E. coli
- Experimental Details: MTH1 enzymatic assay (luminescence-based, PPiLight)
- Type: biochemical
- Conditions Used: 6 μM 8-oxo-dGTP, Table 1, grouped
pIC50: −log10 of the molar value.
Quick list: pIC50 per entry.

Query string: Given the entry CC1C(c2ccccc2)CCN1c1cc(NC2CC2)nc(N)n1 (stereo not drawn) , report its measured pIC50.
Result string: 7.00 to 9.00

Query string: One more compound: Nc1nc(NC2CC2)cc(N2CCCC2Cc2ccccc2)n1 (stereo not drawn)
Result string: > 9.00

Query string: One more compound: CNc1cc(N2CCC[C@@](O)(c3ccccc3)C2)nc(N)n1 (single isomer, unassigned)
Result string: 7.00 to 9.00

---

- Experimental Details: Microsomal stability (intrinsic clearance), mouse
- Format: in vitro ADME
- Conditions Used: mouse liver microsomes, 0.5 mg/ml protein, Clint
- From the text: A microsomal stability assay is used to measure in vitro clearance (Clint). The assay involves measuring the rate of disappearance of a compound due to its intrinsic attitude to be metabolized (“intrinsic” meaning that the disappearance is not affected by other properties like permeability, binding etc. that play a role when quantifying in vivo clearance). The microsomal stability (intrinsic clearance, Clint) and thus metabolic stability is generally given as μl/min/mg protein. […]
Attribute Measured: Microsomal stability mouse

Illustrative cases are given below, each with its answer.
{"Compound": "NC(=O)C1CCN(c2cc(NC3CC3)nc(N)n2)C1 (centres unmarked)", "Val": "13 μl/min/mg prot."}
{"Compound": "CNc1cc(-c2cccc(Cl)c2Cl)nc(N)n1 [TH-287, reference compound]", "Val": "444 μl/min/mg prot."}
{"Compound": "CNc1cc(N2CCC(O)C2)nc(N)n1 (centres unmarked)", "Val": "<10 μl/min/mg prot."}
{"Compound": "CNc1cc(N2CCC(F)(F)C2)nc(N)n1", "Val": "43 μl/min/mg prot."}

Query string: Given the entry `CNc1cc(N2CCC[C@@H]2CO)nc(N)n1` , report its measured Microsomal stability mouse.
Result string: <10 μl/min/mg prot.

---

Quick list: Microsomal stability human per entry.
- Experimental Details: Microsomal stability (intrinsic clearance), human
- Format: in vitro ADME
- Conditions Used: human liver microsomes, 0.5 mg/ml protein, Clint

{"Molecule": "NC(=O)C1CCN(c2cc(NC3CC3)nc(N)n2)C1 (centres unmarked)", "Microsomal stability human": "<10 μl/min/mg prot."}
{"Molecule": "CNc1cc(N2CCC(F)(F)C2)nc(N)n1", "Microsomal stability human": "<10 μl/min/mg prot."}
{"Molecule": "CNc1cc(-c2cccc(Cl)c2Cl)nc(N)n1 [TH-287, reference compound]", "Microsomal stability human": "32 μl/min/mg prot."}

Query string: Given the entry CNc1cc(N2CCC(O)C2)nc(N)n1 (centres unmarked) , report its measured Microsomal stability human.
Result string: <10 μl/min/mg prot.

Query string: One more molecule: `CNc1cc(N2CCC[C@@H]2CO)nc(N)n1`
Result string: <10 μl/min/mg prot.

---

- System Name: purified human recombinant MTH1 (human MTH1, residues 42-197) (Homo sapiens)
- Construct: human MTH1, residues 42-197, Uniprot-ID: P36639, expressed in E. coli; made in house; host or cells: E. coli
- Experimental Details: MTH1 enzymatic assay (luminescence-based, PPiLight)
- Format: biochemical
- Conditions Used: 6 μM 8-oxo-dGTP, Table 1, grouped
pIC50: −log10 of the molar value.
Quick list: pIC50 per entry.

{"Molecule": "CNc1cc(N2CCCC(O)(c3ccccc3)C2)nc(N)n1 (stereo not shown)", "System Name": "purified human recombinant MTH1 (human MTH1, residues 42-197) (Homo sapiens)", "pIC50": "7.00 to 9.00"}
{"Molecule": "NC(=O)[C@@H]1CCN(c2cc(NC3CC3)nc(N)n2)C1", "System Name": "purified human recombinant MTH1 (human MTH1, residues 42-197) (Homo sapiens)", "pIC50": "7.00 to 9.00"}

Query string: Given the entry CNc1cc(N2CCC(c3ccccc3)C2=O)nc(N)n1 (stereo not shown) , what pIC50 was observed with purified human recombinant MTH1 (human MTH1, residues 42-197) (Homo sapiens)?
Result string: 7.00 to 9.00

Query string: One more molecule: `CCCNc1cc(N2CCC(F)(F)C2)nc(N)n1`
Result string: 7.00 to 9.00

Query string: One more molecule: `Nc1nc(NC2CC2)cc(N2CC[C@](O)(C(F)(F)F)C2)n1`
Result string: 7.00 to 9.00

Query string: One more molecule: `C[C@]1(O)CCN(c2cc(NC3CC3)nc(N)n2)C1`
Result string: 7.00 to 9.00

Query string: One more molecule: CNc1cc(N2CCCCC2c2cc3ccccc3o2)nc(N)n1 (stereo not shown)
Result string: > 9.00

Query string: One more molecule: CNc1cc(N2CCCC2Cc2cccc(C)c2)nc(N)n1 (stereo not shown)
Result string: > 9.00

Query string: One more molecule: `COc1ccccc1CCNc1cc(N2CCC(F)(F)C2)nc(N)n1`
Result string: 7.00 to 9.00

Query string: One more molecule: CNc1cc(N2CCC(OC)C2)nc(N)n1 (stereo not shown)
Result string: > 9.00
